target: Human KDR (Homo sapiens); construct: expressed in transfected cells; host or cells: NIH3T3 cells (mouse fibroblasts); assay: Inhibition of KDR phosphorylation in human KDR-transfected NIH3T3 cells (ELISA); assay type: cell-based; conditions: class 0-3;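 also: class 2 means ratio of 10 or more and class 3 means 50 or more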
Sequence (P35968 20-1356): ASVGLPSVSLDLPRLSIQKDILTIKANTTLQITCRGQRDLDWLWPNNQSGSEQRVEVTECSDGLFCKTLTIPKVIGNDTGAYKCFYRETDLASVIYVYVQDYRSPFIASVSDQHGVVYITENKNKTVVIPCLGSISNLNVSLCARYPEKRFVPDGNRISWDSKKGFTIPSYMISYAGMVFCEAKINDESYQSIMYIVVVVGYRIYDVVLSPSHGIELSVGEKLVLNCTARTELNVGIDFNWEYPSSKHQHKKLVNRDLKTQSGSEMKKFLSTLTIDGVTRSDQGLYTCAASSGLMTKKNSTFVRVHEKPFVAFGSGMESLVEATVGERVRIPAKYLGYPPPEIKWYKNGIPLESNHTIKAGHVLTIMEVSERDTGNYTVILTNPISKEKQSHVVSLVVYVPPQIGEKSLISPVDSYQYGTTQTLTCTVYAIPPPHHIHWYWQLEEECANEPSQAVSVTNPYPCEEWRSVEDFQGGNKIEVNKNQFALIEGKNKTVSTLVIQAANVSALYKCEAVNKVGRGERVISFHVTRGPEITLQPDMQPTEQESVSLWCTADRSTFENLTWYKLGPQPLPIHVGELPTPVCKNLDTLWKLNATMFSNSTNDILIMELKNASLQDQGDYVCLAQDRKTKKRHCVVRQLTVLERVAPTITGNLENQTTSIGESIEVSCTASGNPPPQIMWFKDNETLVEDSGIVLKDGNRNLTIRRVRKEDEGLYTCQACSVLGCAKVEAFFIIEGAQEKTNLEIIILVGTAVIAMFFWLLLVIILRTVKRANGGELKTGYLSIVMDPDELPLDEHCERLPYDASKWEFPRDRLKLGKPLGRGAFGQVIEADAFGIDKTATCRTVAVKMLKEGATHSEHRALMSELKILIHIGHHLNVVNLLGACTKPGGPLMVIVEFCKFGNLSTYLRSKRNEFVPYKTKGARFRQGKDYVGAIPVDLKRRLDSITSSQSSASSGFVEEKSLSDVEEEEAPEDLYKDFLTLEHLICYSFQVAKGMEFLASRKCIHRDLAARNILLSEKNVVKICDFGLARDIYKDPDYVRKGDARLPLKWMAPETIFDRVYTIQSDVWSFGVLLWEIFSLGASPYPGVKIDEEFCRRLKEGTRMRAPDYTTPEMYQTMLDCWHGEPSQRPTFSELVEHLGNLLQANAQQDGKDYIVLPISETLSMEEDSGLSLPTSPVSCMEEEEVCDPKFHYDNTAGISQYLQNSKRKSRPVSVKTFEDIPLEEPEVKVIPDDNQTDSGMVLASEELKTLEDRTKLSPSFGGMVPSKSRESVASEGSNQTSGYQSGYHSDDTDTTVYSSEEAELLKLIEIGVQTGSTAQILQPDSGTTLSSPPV
Each entry below carries its recorded Selection ratio (KDR phosphorylation IC50 / c-fms phosphorylation IC50).
measure: Selection ratio (KDR phosphorylation IC50 / c-fms phosphorylation IC50)

compound="COc1cc2nccc(Oc3ccc(NC(=O)NC(C)c4ncc(C)s4)cc3)c2cc1OC (centres unmarked)" obsvalue="2 (when the value was 10 or more)"
compound=COc1cc2nccc(Oc3ccc(NC(=O)N[C@@H](C)c4ccc(Cl)cc4)cc3)c2cc1OC obsvalue="3 (when the value was 50 or more)"
compound="COc1cc2nccc(Oc3cc(C)c(NC(=O)NC(C)c4nc(C)cs4)cc3C)c2cc1OC (centres unmarked)" obsvalue="1 (when the value was 5 or more)"
compound="COc1cc2nccc(Oc3ccc(NC(=O)NC(C)c4nccs4)cc3OC)c2cc1OC (centres unmarked)" obsvalue="3 (when the value was 50 or more)"
